The following substances are listed with their measured percent inhibition of PKK at 5.00 μM values.
system: human PKK mRNA; assay: Dose-dependent antisense inhibition of human PKK in HepaRG cells, 0.19-5.00 uM (Example 5); type: cell-based; details: 5.00 μM, HepaRG cells, electroporation, approximately 16 hours; Table 41
Strand notation (5' to 3'): a small letter for the sugar, then the base; units joined by * are phosphorothioate-linked, units joined directly phosphodiester-linked; [ ] holds rarer units or linkages, { } end groups; capitals alone tell only the bases. e = 2'-O-(2-methoxyethyl) (MOE); [5mC] = 5-methylcytosine; d = 2'-deoxy (DNA)
# value in %; strip the unit string

Study these solved cases before continuing.
546827 (e[5mC]*eA*eG*eT*eA*dT*d[5mC]*dA*d[5mC]*dT*dG*dT*dA*d[5mC]*dT*eA*eG*eT*eT*eT; antisense) [compound 546827] : 96
547602 (antisense eT*e[5mC]*eA*e[5mC]*eT*dG*dT*dA*d[5mC]*d[5mC]*dT*dA*dT*dA*dA*e[5mC]*eT*e[5mC]*eT*eA) [compound 547602] : 93
546825 (eG*eT*eA*eT*e[5mC]*dA*d[5mC]*dT*dG*dT*dA*d[5mC]*dT*dA*dG*eT*eT*eT*e[5mC]*e[5mC]; antisense) [compound 546825] : 99

We now examine a further substance.
Requested read-out percent inhibition of PKK at 5.00 μM, target or system human PKK mRNA, entry 531231 (eT*eA*eT*e[5mC]*eA*d[5mC]*dT*dG*dT*dA*d[5mC]*dT*dA*dG*dT*eT*eT*e[5mC]*e[5mC]*eT) [compound 531231]
97

====

tested on: human PKK mRNA; assay: Antisense inhibition of human PKK mRNA in HepaRG cells, 1,000 nM, MOE/deoxy/cEt oligonucleotides (Example 3); assay type: cell-based; settings: Table 28; HepaRG cells, 1,000 nM antisense oligonucleotide; human PKK mRNA
Strand notation (5' to 3'): a small letter for the sugar, then the base; units joined by * are phosphorothioate-linked, units joined directly phosphodiester-linked; [ ] holds rarer units or linkages, { } end groups; capitals alone tell only the bases. e = 2'-O-(2-methoxyethyl) (MOE); k = constrained ethyl (cEt); [5mC] = 5-methylcytosine; d = 2'-deoxy (DNA)
measured-metric: % inhibition (%)
# value in %; strip the unit string

Study these solved cases before continuing.
531231 (eT*eA*eT*e[5mC]*eA*d[5mC]*dT*dG*dT*dA*d[5mC]*dT*dA*dG*dT*eT*eT*e[5mC]*e[5mC]*eT) [compound 531231] : 46
548514 (antisense eT*e[5mC]*kG*dA*dG*dG*dA*d[5mC]*dA*dG*d[5mC]*d[5mC]*d[5mC]*k[5mC]*k[5mC]*eA) [compound 548514] : 40
548524 (antisense eG*e[5mC]*k[5mC]*d[5mC]*dG*dA*dT*d[5mC]*dA*d[5mC]*d[5mC]*dT*dT*kA*kG*eA) [compound 548524] : 45
548485 (eG*eT*kG*dA*d[5mC]*d[5mC]*d[5mC]*dA*dA*dG*dG*dG*dT*k[5mC]*kG*eA; antisense) [compound 548485] : 17
548523 (antisense eG*eG*kT*dA*dA*dA*dT*d[5mC]*d[5mC]*dA*dT*d[5mC]*d[5mC]*k[5mC]*k[5mC]*eT) [compound 548523] : 44
548510 (antisense eT*eT*kA*dG*d[5mC]*d[5mC]*dA*d[5mC]*dT*d[5mC]*d[5mC]*dT*d[5mC]*kT*kT*eG) [compound 548510] : 30

We now examine a further substance.
Fill in the blank: the reported % inhibition of 548506 (antisense eG*eA*kA*dG*d[5mC]*d[5mC]*dA*dT*dT*d[5mC]*dA*d[5mC]*dT*kG*k[5mC]*eA) [compound 548506] is ____.
32
